# test target: human Y5 receptor (Homo sapiens)
# Construct: expressed in transfected cells; host or cells: mouse fibroblast LM(tk-) cells, e.g. L-hY5-7 (ATCC CRL-11995)
# Sequence (Q15761 whole entry): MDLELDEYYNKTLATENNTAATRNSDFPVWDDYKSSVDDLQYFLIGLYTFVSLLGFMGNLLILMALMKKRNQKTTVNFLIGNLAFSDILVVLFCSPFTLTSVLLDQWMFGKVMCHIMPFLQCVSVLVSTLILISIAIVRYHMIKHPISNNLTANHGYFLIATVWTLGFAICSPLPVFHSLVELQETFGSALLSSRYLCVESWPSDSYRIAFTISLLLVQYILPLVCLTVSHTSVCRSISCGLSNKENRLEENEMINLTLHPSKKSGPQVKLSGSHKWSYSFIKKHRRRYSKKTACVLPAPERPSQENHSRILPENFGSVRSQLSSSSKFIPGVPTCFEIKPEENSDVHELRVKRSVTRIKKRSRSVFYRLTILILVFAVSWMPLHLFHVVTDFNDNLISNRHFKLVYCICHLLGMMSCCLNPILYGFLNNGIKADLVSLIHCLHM
# experiment description: Radioligand binding to membranes, cloned human Y5 receptor
# condition set: Table 1; read-out: Ki (nM) hNPY-5
outcome measure: log10 of Ki (log10 of the value in nM)

molecule | log10 of Ki
CC(=O)N1CCN(c2nc(NCC3CCC(CNS(=O)(=O)c4cccc5ccccc45)CC3)nc(NC(C)C)n2)CC1 (stereo not drawn) | 1.49
COCCNc1nc(NCC2CCC(CNS(=O)(=O)c3cccc4ccccc34)CC2)nc(NC(C)C)n1 (stereo not drawn) | 1.26
CC(C)Nc1nc(NCCO)nc(NCC2CCC(CNS(=O)(=O)c3cccc4ccccc34)CC2)n1 (stereo not drawn) | 1.54
CC(C)Nc1nc(NCCN(C)C)nc(NCC2CCC(CNS(=O)(=O)c3cccc4ccccc34)CC2)n1 (stereo not drawn) | 2.29
CC(C)Nc1nc(NCC2CCC(CNS(=O)(=O)c3cccc4ccccc34)CC2)nc(N2C[C@@H](C)O[C@@H](C)C2)n1 (stereo partly drawn) | 2.13
CC(C)Nc1nc(NCCC#N)nc(NCC2CCC(CNS(=O)(=O)c3cccc4ccccc34)CC2)n1 (stereo not drawn) | 1.91
CCCCCNc1nc(NCC2CCC(CNS(=O)(=O)c3cccc4ccccc34)CC2)nc(NC(C)C)n1 (stereo not drawn) | 0.78
CNc1nc(NCC2CCC(CNS(=O)(=O)c3cccc4ccccc34)CC2)nc(NC(C)C)n1 (stereo not drawn) | 1.11
CC(C)Nc1nc(NCCCn2ccnc2)nc(NCC2CCC(CNS(=O)(=O)c3cccc4ccccc34)CC2)n1 (stereo not drawn) | 1.92
CCCNc1nc(NCC2CCC(CNS(=O)(=O)c3cccc4ccccc34)CC2)nc(NC(C)C)n1 (stereo not drawn) | 1.26
CC(C)Nc1nc(NCC2CCC(CNS(=O)(=O)c3cccc4ccccc34)CC2)nc(N(C)C)n1 (stereo not drawn) | 1.43
CCCCNc1nc(NCC2CCC(CNS(=O)(=O)c3cccc4ccccc34)CC2)nc(NC(C)C)n1 (stereo not drawn) | 1.34
